// provenance: ChEMBL document CHEMBL1139374

- study target: Glutamate carboxypeptidase 2 (Homo sapiens, UniProt Q04609)
- Sequence (Q04609 whole entry): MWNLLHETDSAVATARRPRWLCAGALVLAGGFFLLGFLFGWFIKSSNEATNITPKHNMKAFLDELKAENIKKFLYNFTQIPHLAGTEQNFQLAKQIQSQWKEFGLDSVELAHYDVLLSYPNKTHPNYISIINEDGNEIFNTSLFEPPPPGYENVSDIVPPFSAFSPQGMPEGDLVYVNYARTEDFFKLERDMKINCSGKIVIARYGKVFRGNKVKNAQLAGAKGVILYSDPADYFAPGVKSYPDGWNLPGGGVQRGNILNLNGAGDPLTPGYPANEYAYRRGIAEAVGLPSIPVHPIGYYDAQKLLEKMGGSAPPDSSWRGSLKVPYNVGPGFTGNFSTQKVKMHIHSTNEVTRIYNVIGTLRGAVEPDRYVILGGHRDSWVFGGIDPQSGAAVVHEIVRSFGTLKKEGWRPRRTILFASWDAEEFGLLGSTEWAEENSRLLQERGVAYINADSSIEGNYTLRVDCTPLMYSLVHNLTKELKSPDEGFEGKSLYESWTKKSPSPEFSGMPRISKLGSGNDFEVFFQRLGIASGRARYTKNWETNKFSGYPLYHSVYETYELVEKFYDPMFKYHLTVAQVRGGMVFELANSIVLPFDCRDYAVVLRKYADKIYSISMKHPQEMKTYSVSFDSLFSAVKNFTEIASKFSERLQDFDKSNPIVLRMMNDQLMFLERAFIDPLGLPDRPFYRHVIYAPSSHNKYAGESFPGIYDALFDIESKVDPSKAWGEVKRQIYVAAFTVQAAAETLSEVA
- test name: Binding affinity to PSMA in human LNCaP cells assessed as cell surface binding in phosphate-buffered saline buffer
- Type: cell-based
parameter: pKd
Numbers only, as −log10 of the molar value.

Param item = CC(C)(C)OC(=O)NC12CC3(CCC(=O)N[C@@H](CCP(=O)(O)CC(CCC(=O)O)C(=O)O)C(=O)O)CC(CCC(=O)N[C@@H](CCP(=O)(O)CC(CCC(=O)O)C(=O)O)C(=O)O)(CC(CCC(=O)N[C@@H](CCP(=O)(O)CC(CCC(=O)O)C(=O)O)C(=O)O)(C3)C1)C2 (stereo partly specified) ; retrieve measured pKd. 9.10
